The origin of these recorded values is the supplement of paper PMC10338343.

- Tested on: MILI (PIWIL2) piRISC loaded with piRNA #1 (26 nt);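 further: 1 nM active piRISC with 0.1 nM target library at 33 °C single turnover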
- protocol_description: pre-steady-state target cleavage rate (min^-1); guide: piRNA #1 5'p-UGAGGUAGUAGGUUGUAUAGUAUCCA; higher = faster piRNA-guided slicing of the target
- condition_set: auxiliary factor: 500 nM mouse GTSF1
readout_name: pre-steady-state target cleavage rate
Form field (numeric): enter value without unit.

Example sequences with recorded pre-steady-state target cleavage rate:
GGAGACCUAUCUAUACAACCUACUAUCCUCA 0.193
GGAGACCUAUGAUAUCAUCCUACUACCUCA 0.00256

MILI (PIWIL2) piRISC loaded with piRNA #1 (26 nt) pre-steady-state target cleavage rate of GGAGACCUUACUAUACAACCUACUAACUCA is 0.0948

MILI (PIWIL2) piRISC loaded with piRNA #1 (26 nt) pre-steady-state target cleavage rate of GGAGUGGAUCCUAUACAACCUACUACCUCA is 0.156

MILI (PIWIL2) piRISC loaded with piRNA #1 (26 nt) pre-steady-state target cleavage rate of GGAGACCAUUCUAUACAACCUAGUACCUCA is 0.0977

====

- Tested on: MILI (PIWIL2) piRISC loaded with L1MC piRNA (26 nt);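 further: 1 nM active piRISC with 0.1 nM target library at 33 °C single turnover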
- protocol_description: pre-steady-state target cleavage rate (min^-1); guide: L1MC piRNA 5'p-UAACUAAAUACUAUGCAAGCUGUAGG; higher = faster piRNA-guided slicing of the target
- condition_set: auxiliary factor: 500 nM mouse GTSF1
Tick class 1 if pre-steady-state target cleavage rate is 0.1 or greater. Tick class 0 if pre-steady-state target cleavage rate is less than 0.1.

UCCUGGAUGUCCUUGCAUAGUAUUUUCUAA class 0
UCCUGGAUGUGCUAGCAUUGUAUUUAGUUA class 0
UCCUGGAUCAGGUUGCAUAGUAUUUAGAAA class 1
UCCUGGAUGUCGUUGCAUAGUAUUAAGUUA class 1
UCCUGCUACAGCUUGCAUAGUAUUUUAGUUA class 1
UCCUGCUACAGCUUGCAUAGUAUUUAUGUUA class 1
UCCUGGUACAGCUUGGUUAGUAUUUAGUAA class 1
UCCUCCUACAGCUUGCAUAGUACUUUAGUUA class 1
UCCUGCUACAGCUUUCAUAGUAUUUAGUUA class 1
UCCUGGAUGAGCAUGCAUAGUAUUUAGAAA class 1

Kindly determine if pre-steady-state target cleavage rate recorded for UCCUGCUACAGCAUGCAAAGUAUUUAGUUA is above or exactly 0.1. class 1

Kindly determine if pre-steady-state target cleavage rate recorded for UCCUCCUACAGCAAGCAUAGUAUUUACAAA is above or exactly 0.1. class 1

Kindly determine if pre-steady-state target cleavage rate recorded for UCCUGGAUGUGCUUGCAUAGUCUUUAGUUA is above or exactly 0.1. class 0

Kindly determine if pre-steady-state target cleavage rate recorded for UCCUGGAUGUCCUUGGAUACUAUUUAGUUA is above or exactly 0.1. class 0

Kindly determine if pre-steady-state target cleavage rate recorded for UCCUCCUACAGCUUGCAUCAGUAUUUAGUUA is above or exactly 0.1. class 0

Kindly determine if pre-steady-state target cleavage rate recorded for UCCUCCUACAGCUUGCAUAGUAUAAUCAAA is above or exactly 0.1. class 1

Kindly determine if pre-steady-state target cleavage rate recorded for UCCUGGAACAGCUUGCAUACUAUUUACAAA is above or exactly 0.1. class 0

Kindly determine if pre-steady-state target cleavage rate recorded for UCCUGGAACAGCUUGCAUAGUAUUUAGGUA is above or exactly 0.1. class 0

Kindly determine if pre-steady-state target cleavage rate recorded for UCCUGGUACAGCUAGCAUAGUAUUUUCAAA is above or exactly 0.1. class 0

Kindly determine if pre-steady-state target cleavage rate recorded for UCCUGCUACAGCUUGCAAAGUAUUUUGUUA is above or exactly 0.1. class 1

Kindly determine if pre-steady-state target cleavage rate recorded for UCCUGCUACAGCUUGCAUAGUAGUUAGUUA is above or exactly 0.1. class 1

Kindly determine if pre-steady-state target cleavage rate recorded for UCCUGGAUCAGCUAGCAUAGUAUAUAGUUA is above or exactly 0.1. class 1

Kindly determine if pre-steady-state target cleavage rate recorded for UCCUGAUACAGCUUGCAUAGUAUUUAGUUA is above or exactly 0.1. class 1

Kindly determine if pre-steady-state target cleavage rate recorded for UCCUGGAUGUCGAUGCAUAGUCAUUUAGUUA is above or exactly 0.1. class 0

Kindly determine if pre-steady-state target cleavage rate recorded for UCCUGGAUGUCCUUGCAUAGUAUUUACAAA is above or exactly 0.1. class 0

Kindly determine if pre-steady-state target cleavage rate recorded for UCCUGGUACAGCUUGCUUAGUAUAUAGUUA is above or exactly 0.1. class 1

Kindly determine if pre-steady-state target cleavage rate recorded for UCCUGGUACACCUUGCAUAGUAAUUAGUUA is above or exactly 0.1. class 1

Kindly determine if pre-steady-state target cleavage rate recorded for UCCUGGUACUGCUUGCAUAGUAUUUUCAAA is above or exactly 0.1. class 0

Kindly determine if pre-steady-state target cleavage rate recorded for UCCUGGAUGAGCUUGCACAGUAUUUAGUUA is above or exactly 0.1. class 1

====

- Test system: MILI (PIWIL2) piRISC loaded with piRNA #1 (26 nt);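 further: 1 nM active piRISC with 0.1 nM target library at 33 °C single turnover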
- protocol_description: pre-steady-state target cleavage rate (min^-1); guide: piRNA #1 5'p-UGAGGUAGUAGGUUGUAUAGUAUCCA; higher = faster piRNA-guided slicing of the target
- condition_set: auxiliary factor: 500 nM mouse GTSF1
pre-steady-state target cleavage rate overview
Form field (numeric): enter value without unit.

Example sequences with recorded pre-steady-state target cleavage rate:
biopolymer_sequence	endpoint_value
GGAGACCUAACUAUACAACCUACUAACUCA	0.1
GGAGACCUAACUAUACAAGCUACUAGCUCA	0.159

// field: pre-steady-state target cleavage rate; key: GGAGAGGAUACUAUACAACCUACUACCUCCA ; value = 0.152

// field: pre-steady-state target cleavage rate; key: GGAGACCUAUGAAUACAACCUACUACCUCG [g2:g18:cont:t1G] ; value = 0.0085

// field: pre-steady-state target cleavage rate; key: GGAGACCUAUGAAUACAACCUACUUACCUCA ; value = 0.00968

// field: pre-steady-state target cleavage rate; key: GGAGUGGAUACUAAACAACCUACUUCCUCA ; value = 0.00431

// field: pre-steady-state target cleavage rate; key: GGAGACCUUACUAUACAACCUAGAACCUCA ; value = 0.00842

====

- Tested on: MILI (PIWIL2) piRISC loaded with L1MC piRNA (26 nt);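 further: 1 nM active piRISC with 0.1 nM target library at 33 °C single turnover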
- protocol_description: pre-steady-state target cleavage rate (min^-1); guide: L1MC piRNA 5'p-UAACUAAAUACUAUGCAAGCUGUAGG; higher = faster piRNA-guided slicing of the target
- condition_set: auxiliary factor: 500 nM mouse GTSF1
pre-steady-state target cleavage rate overview

Example sequences with recorded pre-steady-state target cleavage rate:
UCCUGCGUACAGCUUGCAUAGUAUUUAGUUA 0.314
UCCUGGUUCAGCUUGCAUAGAAUUUAGUUA 0.0374
UCCUGGAUCAGGAAGCAUAGUAUUUAGUAA 0.0716
UCCUCCUACUCGUUGCAUAGUAUUUAGUUA 0.211

// field: pre-steady-state target cleavage rate; key: UCCUGGAUGUCGAAGCAUAGUAUUUAAGUUA ; value = 0.064

// field: pre-steady-state target cleavage rate; key: UCCUGCUACAGCUUGCAUAGUAUUUAGUA ; value = 0.335

// field: pre-steady-state target cleavage rate; key: UCCUGCUAGAGCUUGCAUAGUAUUUAGAAA ; value = 0.205

// field: pre-steady-state target cleavage rate; key: UCCUGCUACAGCUUGCAUAGAAUUUUGUUA ; value = 0.06

// field: pre-steady-state target cleavage rate; key: UCCUGGUACAGCUUGCAUAGUUAAUAGAAA ; value = 0.00845

// field: pre-steady-state target cleavage rate; key: UCCUGCUACACCUUGCAUAGUAUUUAGUUA ; value = 0.214

// field: pre-steady-state target cleavage rate; key: UCCUGGAACAGCUUGCAUAGUAUUAACUUA ; value = 0.0356

====

- System: EfPiwi piRISC loaded with L1MC piRNA (26 nt)
- protocol_description: pre-steady-state target cleavage rate (min^-1); auxiliary factor: 500 nM Ephydatia muelleri Gtsf1; guide: L1MC piRNA 5'p-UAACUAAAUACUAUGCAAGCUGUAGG; MIWI and MILI are mouse PIWI proteins and EfPiwi is from a freshwater sponge; tags in brackets are library labels; higher = faster piRNA-guided slicing of the target
readout_name: pre-steady-state target cleavage rate
Form field (numeric): enter value without unit.

// field: pre-steady-state target cleavage rate; key: UCCUGCUACAGCUUGCAUAUUAUUUAGUUA ; value = 0.0119

// field: pre-steady-state target cleavage rate; key: UCCUGGAUCUGCUUGCAUAGUUUUUAGUUA ; value = 0.00787

// field: pre-steady-state target cleavage rate; key: UCCUGGAUGUGUCUUGCAUAGUAUUUAGUUA ; value = 0.113
